Examples of molecules with documented Inhibitory Ratio of NF-κ B Activation(%) Drug Concentration 10 μg/mL follow.
- Tested on: NF-κ B
- Experimental Protocol: Inhibitory activity of NF-κ B activation, luciferase reporter assay in HepG2 under TNF-α stimulation
- Format: cell-based, human
- Settings: 10 μg/mL; HepG2, TNF-α (40 ng/ml), 4 hours
Observed Property: Inhibitory Ratio of NF-κ B Activation(%) Drug Concentration 10 μg/mL

- Structure: "O=C(Nc1nnc(C(F)(F)F)s1)c1cc(Br)ccc1O"
  Measurement: "90.3%"
- Structure: "COc1ccc(-n2cccc2)c(NC(=O)c2cc(Cl)ccc2O)c1"
  Measurement: "98.7%"
- Structure: "N#Cc1ccc(Cl)cc1NC(=O)c1cc(Cl)ccc1O"
  Measurement: "93.3%"

====

Examples of compounds with documented Inhibitory Ratio of NF-κ B Activation(%) Drug Concentration 1 μg/mL follow.
- System: NF-κ B
- Experimental Protocol: Inhibitory activity of NF-κ B activation, luciferase reporter assay in HepG2 under TNF-α stimulation
- Type: cell-based, human
- Settings: 1 μg/mL; HepG2, TNF-α (40 ng/ml), 4 hours
Observed Property: Inhibitory Ratio of NF-κ B Activation(%) Drug Concentration 1 μg/mL

- Structure: "O=C(Nc1cc([N+](=O)[O-])cc([N+](=O)[O-])c1)c1cc(Br)ccc1O"
  Measurement: 91.0
- Structure: "CC(=O)Oc1ccc(Cl)cc1C(=O)Nc1cc(C(C)(C)C)cc(C(C)(C)C)c1"
  Measurement: 90.8
- Structure: "O=C(Nc1cc(C(F)(F)F)cc(C(F)(F)F)c1)c1cc(-c2ccccc2)ccc1O"
  Measurement: 91.8

====

- Test system: NF-κ B
- Experimental Protocol: Inhibitory activity of NF-κ B activation, luciferase reporter assay in HepG2 under TNF-α stimulation
- Type: cell-based, human
- Settings: Homo sapiens; 10 μg/mL; HepG2, TNF-α (40 ng/ml), 4 hours; read-out: Inhibitory Ratio of NF-κ B Activation(%) Drug Concentration 10 μg/mL

- Structure: "CC(C)(C)c1nc(NC(=O)c2cc(Br)ccc2O)sc1N1CCOCC1"
  inhibition at 10 µg/mL (%): 96.8
- Structure: "COC(=O)c1cc(NC(=O)c2cc(Br)ccc2O)cc(C(=O)OC)c1"
  inhibition at 10 µg/mL (%): 56.4
- Structure: "CC(C)(C)c1cc(NC(=O)c2cc(Cl)ccc2O)cc(C(C)(C)C)c1"
  inhibition at 10 µg/mL (%): 98.1
- Structure: "O=C(Nc1cc(C(F)(F)F)cc(C(F)(F)F)c1)c1cc(Cl)ccc1O"
  inhibition at 10 µg/mL (%): 97.5

====

- Tested on: NF-κ B
- Experimental Protocol: Inhibitory activity of NF-κ B activation, luciferase reporter assay in HepG2 under TNF-α stimulation
- Assay type: cell-based, human
- Settings: 1 μg/mL; HepG2, TNF-α (40 ng/ml), 4 hours
Binary classification by Inhibitory Ratio of NF-κ B Activation(%) Drug Concentration 1 μg/mL, with 50% as an inclusive lower bound for true; all other cases are false.

- Structure: "O=C(Nc1cc(-c2ccccc2)[nH]n1)c1cc(Br)ccc1O"
  Assigned Class: "false"
- Structure: "O=C(Nc1cc(C(F)(F)F)cc(C(F)(F)F)c1)c1cc(-c2cccs2)ccc1O"
  Assigned Class: "true"
- Structure: "CCC(C)(C)c1ccc(Oc2ccccc2)c(NC(=O)c2cc(Cl)ccc2O)c1"
  Assigned Class: "true"
- Structure: "CCc1nc(NC(=O)c2cc(Br)ccc2O)sc1-c1ccccc1"
  Assigned Class: "false"
- Structure: "CC(C)(C)c1cc(NC(=O)c2cc(Br)ccc2O)cc(C(C)(C)C)c1"
  Assigned Class: "true"
- Structure: "Cc1ccc(S(=O)(=O)c2ccc(Cl)cc2NC(=O)c2cc(Cl)ccc2O)cc1"
  Assigned Class: "false"
- Structure: "O=C(Nc1nc(-c2ccccc2)c(C(=O)NCCc2ccccc2)s1)c1cc(Br)ccc1O"
  Assigned Class: "false"
- Structure: "Cc1ccc(C(F)(F)F)cc1NC(=O)c1cc(Cl)ccc1O"
  Assigned Class: "true"
- Structure: "CCN(CC)S(=O)(=O)c1ccc(OC)c(NC(=O)c2cc(Cl)ccc2O)c1"
  Assigned Class: "false"
- Structure: "O=C(Nc1cc(C(F)(F)F)ccc1Oc1ccc(Cl)cc1Cl)c1cc(Cl)ccc1O"
  Assigned Class: "true"
- Structure: "CC(=O)Oc1ccc(Cl)cc1C(=O)Nc1nc(C(C)(C)C)c(C(=O)C(C)(C)C)s1"
  Assigned Class: "true"
- Structure: "O=C(Nc1cc(C(F)(F)F)cc(C(F)(F)F)c1)c1cc(Br)cc(-c2ccccc2)c1O"
  Assigned Class: "true"
- Structure: "CCCCCCOc1ccc(S(C)(=O)=O)cc1NC(=O)c1cc(Cl)ccc1O"
  Assigned Class: "true"
- Structure: "CCOC(=O)c1sc(NC(=O)c2cc(Cl)ccc2O)nc1-c1ccccc1"
  Assigned Class: "true"
- Structure: "CC(C)(C)CC(C)(C)c1ccc(O)c(C(=O)Nc2cc(C(F)(F)F)cc(C(F)(F)F)c2)c1"
  Assigned Class: "true"
- Structure: "O=C(Nc1cc(C(F)(F)F)cc(C(F)(F)F)c1)c1cc(C(F)(F)C(F)(F)F)ccc1O"
  Assigned Class: "true"
